From: ChEMBL document CHEMBL1201862

Recorded GI50, one value per entry.
System: HT-29
Assay: NCI tumour cell line growth inhibition, 48 h
Activity calls are given as the source filed them. Rule as the data show it: active = GI50 up to about 1.1 µM and inactive = higher.

Worked examples follow.
{"columns": ["compound", "result"],
 "data": [
  ["COc1ccccc1N1C(=O)/C(=C\\c2cc(OC)c(OC)c(OC)c2)SC1c1ccccc1 (stereo not given)", "45.3 µM (inactive)"],
  ["N=C(N)N/N=C/c1c(-c2cc([N+](=O)[O-])c(Cl)cc2Cl)nc2n1CCS2", "7.08 µM (inactive)"],
  ["COC(=O)c1ccc(C=C(C#N)C#N)cc1", "33.4 µM (inactive)"]
]}

Test system HT-29; read-out GI50; what value for CC(C)(Cl)C(Br)CC/C(=C/CBr)CBr.CC(C)(Cl)C(Br)CC/C(=C\CBr)CBr (stereo not given) ?
1.95 µM (inactive)

Test system HT-29; read-out GI50; what value for Cc1c(CCN2CCOCC2)c(N2CCOCC2)n2c(nc3ccccc32)c1C#N ?
> 10 µM (inactive)

====

System: KM12
Assay: NCI tumour cell line growth inhibition, 48 h
The source made the active and inactive calls. No stated cut-off is given here; in the data, active = GI50 up to about 1.1 µM and inactive = higher.
Recorded GI50, one value per entry.

{"columns": ["compound", "GI50"],
 "data": [
  ["CN1CCC23c4c5ccc(Oc6nnnn6-c6ccccc6)c4OC2c2[nH]c4ccccc4c2CC3(O)C1C5 (stereo not given)", "2.82 µM (inactive)"],
  ["CCOC(=O)C(=CNC(=S)Nc1c(CC)cccc1CC)C(=O)OCC", "> 100 µM (inactive)"],
  ["O=C(O)c1c(Br)c(Br)c(Br)c(Br)c1C1c2ccc(O)cc2Oc2cc(O)ccc21", "> 100 µM (inactive)"],
  ["CCOC(=O)c1sc2nc(-c3ccccc3)nn2c1CBr", "2.11 µM (inactive)"]
]}

Given Cc1ccc(S(=O)(=O)c2ccc(C)cc2[N+](=O)[O-])cc1 , state its recorded GI50.
> 100 µM (inactive)

====

Test system: LOX IMVI
Assay: NCI tumour cell line growth inhibition, 48 h
Activity calls are given as the source filed them. Cut-off read from the data, not from the text of the source: active = GI50 up to about 1.1 µM and inactive = higher.
quantityMeasured: GI50

{"columns": ["moleculeSmiles", "GI50"],
 "data": [
  ["O=c1oc2ccccc2[n+]([O-])c1-c1ccccc1", "> 100 µM (inactive)"],
  ["Cc1cc(N(C)C)c2ccccc2[n+]1CCCCCCCCCC[n+]1c(C)cc(N(C)C)c2ccccc21.[O-][Cl+3]([O-])([O-])[O-].[O-][Cl+3]([O-])([O-])[O-]", "0.871 µM (active)"],
  ["FC(F)(F)c1ccc2nc(Sc3ccccn3)cnc2c1", "40.6 µM (inactive)"],
  ["O=C(N/C=C1\\C(=O)Oc2ccccc2C1=O)Nc1ccccc1", "42.4 µM (inactive)"],
  ["O=C1CCC2(CCO1)OCCO2", "> 100 µM (inactive)"]
]}

Test system LOX IMVI; read-out GI50; what value for N#Cc1c2c(c(Nc3cccc(C(F)(F)F)c3)n3c1nc1ccccc13)CCCC2 ?
14.8 µM (inactive)

Test system LOX IMVI; read-out GI50; what value for COc1ccc(C/C(=N/O)C(=O)NCCc2cc(Br)c(OCCCN(C)C)c(Br)c2)cc1Br ?
16.2 µM (inactive)

Test system LOX IMVI; read-out GI50; what value for O=C1c2cc([N+](=O)[O-])sc2C(=O)c2c([N+](=O)[O-])csc21 ?
0.112 µM (active)

Test system LOX IMVI; read-out GI50; what value for Cc1n[nH]c(CC#N)n1 ?
> 100 µM (inactive)

Test system LOX IMVI; read-out GI50; what value for CC[C@H]1CC(=O)c2c(cc3c(c2O)C(=O)c2ccccc2C3=O)[C@@]1(C#N)C(=O)OC(C)(C)C ?
3.54 µM (inactive)

====

System: DU-145
Assay: NCI tumour cell line growth inhibition, 48 h
Activity calls are given as the source filed them. No stated cut-off is given here; in the data, active = GI50 up to about 1.1 µM and inactive = higher.
quantityMeasured: GI50

Worked examples follow.
{"columns": ["molecule", "experimentalSystem", "result"],
 "data": [
  ["CC(NC(=O)C1(N)CCCC1)C(=O)O (stereo unspecified)", "DU-145", "> 100 µM (inactive)"],
  ["C=CCN1C(=O)CNC1=S", "DU-145", "> 100 µM (inactive)"],
  ["COc1ccc(-c2[nH]c(=O)n(C3OC(CO)C(O)C(O)C3O)c(=O)c2C#N)cc1 (stereo unspecified)", "DU-145", "> 100 µM (inactive)"],
  ["CN1C=Cc2nccc3cc4c(c1c23)OCO4", "DU-145", "5.78 µM (inactive)"],
  ["O=C1CSC(c2cccc(Cl)c2)N1c1c(O)c(Cl)cc(Br)c1Cl (stereo unspecified)", "DU-145", "> 100 µM (inactive)"]
]}

Given CC1C(=O)N=C2C(=CN(Cc3ccccc3)c3ccccc32)C(=O)N1C (stereo unspecified) , state its recorded GI50.
> 100 µM (inactive)

Given COC(=O)C1=C(O)C(C(=O)OC)[C@]2(O)[C@H](C(=O)OC)[C@H]1C[C@@H](c1ccc(OC)c(OC)c1)[C@H]2C(=O)OC (stereo partly specified) , state its recorded GI50.
19.9 µM (inactive)

Given CNC(=O)C(C)NC(=O)C(Cc1ccccc1)NC(=O)c1ccccc1 (stereo unspecified) , state its recorded GI50.
> 100 µM (inactive)

Given CC1(C)CC(=O)C(=CNc2nc(-c3ccc(Br)cc3)cs2)C(=O)C1 , state its recorded GI50.
43.9 µM (inactive)

Given CC(=N\N=C\c1ccccn1)/C(C)=N/N=C/c1ccccn1 , state its recorded GI50.
> 100 µM (inactive)

Given O=[N+]([O-])c1cc2oc(CSc3ccccc3)nc2cc1Cl , state its recorded GI50.
37.7 µM (inactive)

====

Tested on: CCRF-CEM
Experiment: NCI tumour cell line growth inhibition, 48 h
Activity calls are given as the source filed them. Cut-off read from the data, not from the text of the source: active = GI50 up to about 1.1 µM and inactive = higher.
Select the matching outcome among y (active), n (inactive)

Please review the following examples before continuing.
{"columns": ["molecule", "labelValue"],
 "data": [
  ["CCOC(=O)C(C(=O)OCC)=C1SC(=N\\c2ccccc2)/C(=N/c2ccccc2)N1c1ccccc1", "n"],
  ["COc1ccc(C(=C(C#N)C#N)c2ccc(OC)cc2)cc1", "n"],
  ["CC(C)/C(Cl)=N\\OC(=O)Nc1ccc(S(N)(=O)=O)cc1", "n"]
]}

Could you check what this test reported for O=C(NN1C(=O)CSC1c1cccc(F)c1)c1ccncc1 (stereo not given) ?
n

Could you check what this test reported for OC(C1CO1)C(O)C1CO1 (stereo not given) ?
n

Could you check what this test reported for C#CCCOC1(OC)N=NC(C)(C)O1 (stereo not given) ?
n

Could you check what this test reported for COC(=O)NCCc1n[nH]c2c1C(=O)C=C(Nc1ccccc1)C2=O ?
n

Could you check what this test reported for CC(=O)Oc1ccc(/C=C/C(=O)O[C@H]2CCCC[C@@H]2OC(=O)/C=C/c2ccc(OC(C)=O)c(OC(C)=O)c2)cc1OC(C)=O ?
n

====

System: HCT-116
Experiment: NCI tumour cell line growth inhibition, 48 h
Activity calls are given as the source filed them. Rule as the data show it: active = GI50 up to about 1.1 µM and inactive = higher.
Select the matching outcome among class 1 for active, class 0 for inactive

{"columns": ["molecule", "labelValue"],
 "data": [
  ["COC(=O)C1C=CCON2CCc3c(n(S(=O)(=O)c4ccccc4)c4ccccc34)C12 (centres undefined)", "class 0"],
  ["O=c1[nH]c2cc([N+](=O)[O-])c(Nc3c4ccccc4nc4ccccc34)c([N+](=O)[O-])c2[nH]1", "class 1"],
  ["CC/C=C\\C/C=C\\C/C=C\\CCCCCCCC(=O)OC [METHYL LINOLENATE]", "class 0"],
  ["COc1ccc(/C=C2\\CSC/C(=C\\c3ccc(OC)c(OC)c3OC)C2=O)c(OC)c1OC", "class 0"],
  ["CC1CC(N)=Nc2ccccc2N1Cc1ccccc1 (centres undefined)", "class 0"],
  ["Brc1cccc(C2ON=C(c3ccccc3)N2C23CC4CC(CC(C4)C2)C3)c1 (centres undefined)", "class 0"],
  ["COc1ccc(NC(=O)C(=O)c2c(O)c3ccc(O)cc3oc2=O)c([N+](=O)[O-])c1", "class 0"],
  ["CCO[C@@]1(COCc2ccccc2)OC(=O)C[C@@H]1N1C(=O)OC[C@@H]1c1ccccc1", "class 0"],
  ["CC(C)[C@H]1C(=O)O[B@-](F)(c2ccccc2)/[N+]1=C\\N(C)C", "class 0"],
  ["CC1CCC2C(C)C3C(CC4C5CC=C6CC(OC7OC(CO)C(O)C(OC8OC(CO)C(O)C(O)C8O)C7OC7OC(C)C(O)C(O)C7O)CCC6(C)C5CCC43C)N2C1 (centres undefined)", "class 0"]
]}

Could you check what this test reported for CCN1C2=NC(=O)N(C)C(=O)C2(Cl)C(C(SC)S(=O)(=O)c2ccc(C)cc2)c2ccccc21 (centres undefined) ?
class 0

Could you check what this test reported for CCN(CC)c1ccc(/N=N/c2ccc(-c3nc4ccc[n+](C)c4o3)cc2)cc1 ?
class 0

Could you check what this test reported for CCOc1ccc2c(C)cc(=O)oc2c1 ?
class 0

Could you check what this test reported for COc1ccc(C(=C(C#N)C#N)c2ccc(OC)cc2)cc1 ?
class 0

Could you check what this test reported for COc1ccc2[nH]cc(CCNC(=O)[C@](O)(Cc3cn(C)c4ccccc34)[C@@]3(O)OCC(O)C3O)c2c1 (some centres undefined) ?
class 0

Could you check what this test reported for CC(C)(C)C(=O)C(Cc1ccccc1)C(=O)C(C)(C)C ?
class 0

Could you check what this test reported for O=C1CCC(NC(=O)Cc2ccc(O)cc2)C(=O)N1 (centres undefined) ?
class 0

Could you check what this test reported for COc1ccc(-c2cc(=O)c3c(O)c(OC)c(O)cc3o2)cc1O ?
class 0
